Numbers sourced from ChEMBL document CHEMBL4371049.

system: HepG2; assay: Antiproliferative activity against human HepG2 cells after 48 hrs by MTT assay; type: functional, cell-based; settings: HepG2, 48 h
readout.type: IC50 (µM)
Answers are plain numbers, in µM.

Reference set (3 entries):
[[record]]
smi = "COC(C)(C)CCC[C@@](C)(O)[C@H]1CC[C@]2(C)[C@@H]1[C@H](O)C[C@@H]1[C@@]3(C)CC[C@H](OC(=O)c4cccc(C)c4)C(C)(C)[C@@H]3CC[C@]12C"
unit_abbreviation = "µM"
measured = 38.4

[[record]]
smi = "COC(C)(C)CCC[C@@](C)(O)[C@H]1CC[C@]2(C)[C@@H]1[C@H](O)C[C@@H]1[C@@]3(C)CC[C@H](OC(=O)c4ccc(Br)cc4)C(C)(C)[C@@H]3CC[C@]12C"
unit_abbreviation = "µM"
measured = 25.7

[[record]]
smi = "COC(C)(C)CCC[C@@](C)(O)[C@H]1CC[C@]2(C)[C@@H]1[C@H](O)C[C@@H]1[C@@]3(C)CC[C@H](OC(=O)c4cc(Br)cc(Br)c4)C(C)(C)[C@@H]3CC[C@]12C"
unit_abbreviation = "µM"
measured = 43.6


Data request: Please list IC50 recorded for the compound COC(C)(C)CCC[C@@](C)(O)[C@H]1CC[C@]2(C)[C@@H]1[C@H](OC(=O)/C=C/c1ccc(F)cc1)C[C@@H]1[C@@]3(C)CC[C@H](OC(=O)/C=C/c4ccc(F)cc4)C(C)(C)[C@@H]3CC[C@]12C
Data returned: 41.8
